Target: Nuclear receptor subfamily 0 group B member 1 (Homo sapiens) (UniProt P51843)
Sequence (P51843 whole entry, looked up): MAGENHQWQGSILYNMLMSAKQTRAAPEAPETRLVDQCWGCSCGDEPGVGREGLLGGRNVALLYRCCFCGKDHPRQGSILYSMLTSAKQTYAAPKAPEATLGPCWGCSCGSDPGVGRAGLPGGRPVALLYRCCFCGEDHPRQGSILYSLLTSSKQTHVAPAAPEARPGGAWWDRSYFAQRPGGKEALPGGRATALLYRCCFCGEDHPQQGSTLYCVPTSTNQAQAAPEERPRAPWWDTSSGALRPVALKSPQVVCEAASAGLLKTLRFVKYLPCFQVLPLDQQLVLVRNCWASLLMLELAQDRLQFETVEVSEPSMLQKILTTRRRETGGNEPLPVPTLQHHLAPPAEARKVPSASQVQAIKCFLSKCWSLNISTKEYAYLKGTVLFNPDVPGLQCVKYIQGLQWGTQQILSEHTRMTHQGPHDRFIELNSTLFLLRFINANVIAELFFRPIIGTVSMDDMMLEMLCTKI
Test: DAX1 (NR0B1) inhibitors relieving SF-1 repression, confirmation, cell-based, luminescence, HEK293T, full-length DAX-1, SF-1 activated StAR promoter (AID 652134);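 also: 0% = DAX-1 cells with DMSO and 100% = no DAX-1 control cells with DMSO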
Conditions: HEK293T StAR-promoter luciferase reporter, SF-1/DAX-1 repression; at 6.8 µM; stronger effect = higher value
The whole screen tested about 2,400 compounds, of which about 2,100 (88%) were called active. The set was probably picked from earlier hits. These entries were drawn from the full list.
Label scheme for inhibition: lower than 10% is 0 (no), 10% and above is 1 (yes).

Reported inhibition reaches at least 10% for OC(c1ccccc1)c1nc(-c2cnc3ccccc3c2)cs1 (stereo not drawn) ? 1 (yes)

Sourced from PubChem BioAssay AID652134
